B1: ANKRD40 (parent)
chain: VCCCELGVNPDQVEKIRKLPNTLL

Variants of: B1
PROTOCOL NOTES: protein stability index of a GFP-peptide fusion (GPS, HEK-293T) (PSI 1-6); higher = more stable;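 further: lentivirally expressed fusions sorted by FACS into six bins by GFP to DsRed ratio, PSI derived from sequencing read proportions per bin multiplied by bin number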
CONDITION NOTES: c terminus: a fixed tail appended
Response key: 1 means protein stability index >= 2; 0 means protein stability index < 2.

Example results:
>>> group("L24Q")
1
>>> group("E14M")
0
>>> group("C3D")
1
>>> group("N21K")
1
>>> group("L6D")
1
>>> group("V13R")
1

Given `L6Y` , state whether its protein stability index is at least 2.
0

Given `C4M` , state whether its protein stability index is at least 2.
1

Given `C4F` , state whether its protein stability index is at least 2.
0

Given `G7I` , state whether its protein stability index is at least 2.
1

Given `L23Y` , state whether its protein stability index is at least 2.
0

Given `L19I` , state whether its protein stability index is at least 2.
1

Given `L19H` , state whether its protein stability index is at least 2.
0

Given `V1K` , state whether its protein stability index is at least 2.
1

Given `L6K` , state whether its protein stability index is at least 2.
1

Given `Q12K` , state whether its protein stability index is at least 2.
0

Given `L23M` , state whether its protein stability index is at least 2.
0

Given `R17L` , state whether its protein stability index is at least 2.
0

Given `C3T` , state whether its protein stability index is at least 2.
1
